These data points were gathered from paper PMC10786891.

Biological target: T1, EsCas13d, nuclease-dead (Eubacterium siraeum, UniProt B0MS50, R295A;H300A;R849A;H854A)
T1 sequence: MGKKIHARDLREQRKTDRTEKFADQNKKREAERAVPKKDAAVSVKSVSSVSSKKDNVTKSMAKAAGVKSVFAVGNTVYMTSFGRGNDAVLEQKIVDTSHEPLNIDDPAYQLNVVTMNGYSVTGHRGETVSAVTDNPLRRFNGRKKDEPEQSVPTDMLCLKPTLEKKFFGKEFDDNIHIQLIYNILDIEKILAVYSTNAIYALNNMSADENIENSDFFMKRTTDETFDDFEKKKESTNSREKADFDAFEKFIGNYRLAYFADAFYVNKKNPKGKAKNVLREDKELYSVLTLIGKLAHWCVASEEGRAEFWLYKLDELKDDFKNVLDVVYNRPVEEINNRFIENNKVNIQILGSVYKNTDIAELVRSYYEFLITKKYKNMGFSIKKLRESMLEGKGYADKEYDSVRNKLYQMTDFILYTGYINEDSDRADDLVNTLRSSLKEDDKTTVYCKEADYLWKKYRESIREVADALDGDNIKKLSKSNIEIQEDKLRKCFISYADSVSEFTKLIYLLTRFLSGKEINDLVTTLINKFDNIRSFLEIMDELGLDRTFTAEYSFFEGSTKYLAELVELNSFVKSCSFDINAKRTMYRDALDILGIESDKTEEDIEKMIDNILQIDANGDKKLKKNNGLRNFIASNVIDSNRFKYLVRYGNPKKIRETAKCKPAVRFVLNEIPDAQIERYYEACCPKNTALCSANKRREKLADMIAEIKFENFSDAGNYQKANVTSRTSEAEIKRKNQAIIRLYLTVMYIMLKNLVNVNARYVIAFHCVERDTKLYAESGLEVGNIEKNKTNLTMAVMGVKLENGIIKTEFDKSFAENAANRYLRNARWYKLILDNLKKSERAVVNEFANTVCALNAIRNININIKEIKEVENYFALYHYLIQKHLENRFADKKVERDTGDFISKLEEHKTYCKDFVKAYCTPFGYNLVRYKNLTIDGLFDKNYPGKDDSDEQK
Assay: crRNA (strand 1, pre-loaded); Mg2+; 40 mM Tris-HCl pH 7.5, 150 mM NaCl, 6 mM MgCl2, 1 mM DTT, 0.1% Tween-20, 0.2 mg/ml BSA; 25 C; 10 min per concentration, then washed
Details: tags: His6-TwinStrep-SUMO cleaved; N-terminal SNAP kept (SNAP-Surface 488); label: 3' end held by stalled T7 RNA polymerase
experimental endpoint: Kd

What measured Kd goes with target 2 MT 5'PFS UCG 3'PFS AAU (mixed) RNA 1: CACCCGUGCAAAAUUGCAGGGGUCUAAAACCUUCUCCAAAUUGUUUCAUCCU RNA 2: GGGAAUGGAUCCACAUCUACGAAUUCUCGAGGAUGAAACAAUUUGGAGAAGAAUAGAUCGGAAGAGCACACGU ?
~24 nM

Input target 3 insG 3' of 9,insA 3' of 6 (mixed) RNA 1: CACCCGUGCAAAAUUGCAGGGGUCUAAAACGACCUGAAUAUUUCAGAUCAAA RNA 2: GGGAAUGGAUCCACAUCUACGAAUUCGUUUUUGAUCUGAAAUAGUUCAAGGUCUGCAGAUCGGAAGAGCACACGU
90.5 nM

Input target 1 MT 5'PFS GCG 3'PFS AUA (mixed) RNA 1: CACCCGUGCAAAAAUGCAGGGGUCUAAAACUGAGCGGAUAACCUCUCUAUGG RNA 2: GGGAAUGGAUCCACAUCUACGAAUUCGCGCCAUAGAGAGGUUAUCCGCUCAAUAAGAUCGGAAGAGCACACGU
16.2 nM

Input target 2 MT 5'PFS ACU 3'PFS CUA (mixed) RNA 1: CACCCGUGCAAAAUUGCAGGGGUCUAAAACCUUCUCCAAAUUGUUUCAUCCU RNA 2: GGGAAUGGAUCCACAUCUACGAAUUCACUAGGAUGAAACAAUUUGGAGAAGCUAAGAUCGGAAGAGCACACGU
3.5 nM
